test system: 266 human PDZ domains (PDZome); experiment: Holdup assay (chromatographic retention, PDZome-binding profile, BI); parameters: key: binding intensity: 0.00 = no binding, 1.00 = maximal binding; conditions: PDZ domain PDZD8-1
*1 amine or outer side, *2 acyl side, *3 side chain or, on linkers, in order; H or OH if unused. Where a SMILES comes first, the peptide text is derived from it. The star is where a group is joined. X1 = O=C(CCCC[C@@H]1SC[C@@H]2NC(=O)N[C@@H]21)NCCCOCCOCCOCCCN*; Suc = O=C(CCC(=O)[*:2])[*:1]
MEASUREMENT LABEL: BI
// no unit, no text: just the number

State the recorded BI for this entry: CC[C@H](C)[C@H](NC(=O)[C@H](CCC(N)=O)NC(=O)[C@@H](NC(=O)[C@H](Cc1c[nH]cn1)NC(=O)[C@H](CCC(N)=O)NC(=O)[C@H](CC(=O)O)NC(=O)[C@H](CCC(=O)O)NC(=O)[C@H](CC(=O)O)NC(=O)[C@H](Cc1ccccc1)NC(=O)[C@@H]1CCCN1C(=O)CCC(=O)NCCCOCCOCCOCCCNC(=O)CCCC[C@@H]1SC[C@@H]2NC(=O)N[C@@H]21)[C@@H](C)O)C(=O)N[C@H](C(=O)N[C@@H](CCCCN)C(=O)N[C@H](C(=O)O)C(C)C)[C@@H](C)O [PTEN_13] ({X1-Suc}-PFDEDQHTQITKV-OH) 0.038
